Exercise: for every item that follows, state its recorded growth inhibition.
- procedure_summary: NCI Yeast Anticancer Drug Screen. Data for the mlh1 rad18 strain (AID 175)
- stated_conditions: S. cerevisiae mlh1 rad18 strain growth inhibition; at 50.0 µM; active compounds read high
Compounds without any hit were thinned out: in the full panel of roughly 79,000, 15% have a hit.
Answer in %, number only, no unit symbol.

O=S(=O)(O)c1cc(Cl)c(O)c(Cl)c1 yielded growth inhibition of 23.2

CCCCCC(=O)OC(C)COc1ccccc1 (stereo unspecified) yielded growth inhibition of 28.6

c1ccc(-c2nc(-c3ccccc3SSc3ccccc3-c3nc(-c4ccccc4)nn3-c3ccccc3)n(-c3ccccc3)n2)cc1 yielded growth inhibition of 18.9

O=C1OC(=O)C(c2ccccc2)=C1c1ccccc1 yielded growth inhibition of 24.9

Cc1cc(O)c(/C=N/C(=S)Nc2ccccc2)c(=O)o1 yielded growth inhibition of -39

C=C[C@@H]1C(CO)=CCC2[C@H]1CCC1C(C)(C)C(=O)CC[C@]21C (stereo partly specified) yielded growth inhibition of -47.1

CC(=O)Nc1ccc(/C=N/NC(N)=S)cc1 yielded growth inhibition of 13

CCCCNC(C(=O)c1ccc(N(C)C)cc1)c1ccccc1 (stereo unspecified) yielded growth inhibition of -13.9

CCOC(=O)C(=CNc1cccc(Cl)c1)C(=O)OCC yielded growth inhibition of -19.9

CC(CNC(=O)c1ccccc1)(CNC(=O)c1ccccc1)[N+](=O)[O-] yielded growth inhibition of 3.85

O=C(CC1(O)C(=O)Nc2ccccc21)c1ccc(O)cc1O (stereo unspecified) yielded growth inhibition of 18.6

* * *

- procedure_summary: NCI Yeast Anticancer Drug Screen. Data for the rad50 strain (AID 155);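 further: 0% = growth of vehicle-only cultures of the same strain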
- stated_conditions: S. cerevisiae rad50 strain growth inhibition; at 50.0 µM; active compounds read high
The panel holds about 79,000 compounds, 15% with a hit somewhere; the sample as a whole holds those more often.
Exercise: for every item that follows, state its recorded growth inhibition.
Answer in %, number only, no unit symbol.

CCOC(=O)C(CC[C@@H]1N[C@H](C(N)=O)Cc2c1[nH]c1ccccc21)C(=O)OCC yielded growth inhibition of 8.5

N#CC12CC=C(c3ccccc3)N=C1NC(c1ccccc1)=CC2 (configuration not stated) yielded growth inhibition of -25.9

c1ccc(C2=NC(c3ccccc3)N=C(c3ccccc3)N2)cc1 yielded growth inhibition of -0.75

N#Cc1cccc(CC(O)(c2ccccc2)c2ccccc2)c1 yielded growth inhibition of 19.6

O=S1(=O)CCC(Br)c2ccccc21 (configuration not stated) yielded growth inhibition of -5

O=C1c2ccc([N+](=O)[O-])cc2C(=O)N1CC(F)(F)F yielded growth inhibition of -0.9

CC([C@H]1CC[C@H]2[C@@H]3CC=C4C[C@@H](O)CC[C@]4(C)[C@H]3CC[C@]12C)C(O)(c1ccccc1)c1ccccc1 (some centres not stated) yielded growth inhibition of 40.9

CC1(C)N=C(N)N=C(N)N1c1cccc(CSc2ccccc2)c1 yielded growth inhibition of -14.2

Fc1cccc(-c2nnc(-c3ccccc3)o2)c1 yielded growth inhibition of 34.1

Cc1nc2ccc(N)cc2[nH]c1=O yielded growth inhibition of 16.9

CCOCCN(CCOCC)c1ncnc2[nH]ncc12 yielded growth inhibition of 9.15

Cc1cc2oc(=O)cc(C(=O)O)c2c(=O)o1 yielded growth inhibition of -15.8

* * *

Exercise: for every item that follows, state its recorded growth inhibition.
- procedure_summary: NCI Yeast Anticancer Drug Screen. Data for the sgs1 mgt1 strain (AID 161);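 further: 0% = growth of cultures given vehicle only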
- stated_conditions: S. cerevisiae sgs1 mgt1 strain, at 50.0 µM, active compounds read high
Compounds without any hit were thinned out: in the full panel of roughly 79,000, 15% have a hit. Where a SMILES comes first, the peptide text is derived from it. [ ]: non-standard residue; d: D form. The star is where a group is joined. ξ: configuration not given here. Cbz = O=C(OCc1ccccc1)*; ξNva = CCCC(N)C(=O)O
Answer in %, number only, no unit symbol.

O=C(O)c1cc(N2C(=O)c3ccc4c5ccc6c7c(ccc(c8ccc(c3c48)C2=O)c75)C(=O)N(c2ccc(O)c(C(=O)O)c2)C6=O)ccc1O yielded growth inhibition of 3.2

O=C(SCc1ccccc1)C(O)c1ccccc1 (stereo not given) yielded growth inhibition of 15.7

CC12CC3(C)CC(C)(C1)CC(C(NC(C)(C)C)C(=O)O)(C2)C3 (stereo not given) yielded growth inhibition of 11.9

O=[N+]([O-])c1cc(Br)c2ccccc2c1 yielded growth inhibition of 6.45

CC(=O)OCC1OC(N2C(c3ccccc3)=CC(c3cccs3)C(C#N)=C2S)C(OC(C)=O)C(OC(C)=O)C1OC(C)=O (stereo not given) yielded growth inhibition of 40.6

Fc1cccc(-c2nnc(-c3ccccc3)o2)c1 yielded growth inhibition of 28.9

Cn1c(=O)cc2n(C)c3ccccc3n2c1=O yielded growth inhibition of 1.2

CC(Oc1ccc2c(-c3ccc(Cl)cc3)cc(=O)oc2c1)C(=O)O (stereo not given) yielded growth inhibition of 13.6

CCc1cccc(CC)c1N1C(=O)C(=O)C(C(C)=O)C1=O (stereo not given) yielded growth inhibition of 7.6

CC(=O)C(N)=NCc1ccccc1 yielded growth inhibition of -10.7

Cn1c2ccccc2n2c(=O)c(-c3ccc(Cl)cc3)nnc12 yielded growth inhibition of -5.15

O=C(Nc1ccccc1)C1C2C=CC(C2)C1C(=O)Nc1ccccc1 (stereo not given) yielded growth inhibition of 5.05

O=C(Nc1ccc(Nc2ccc(NC(=O)c3ccccc3)c3c2C(=O)c2ccccc2C3=O)c2c1C(=O)c1ccccc1C2=O)c1ccccc1 yielded growth inhibition of 6.05

C/C(=C1/N=C(c2ccccc2)OC1=O)c1ccccc1 yielded growth inhibition of 65.4

Cn1c(=O)c(Br)c(C=O)n(CCO[N+](=O)[O-])c1=O yielded growth inhibition of 3.85

CCN=C1Nc2ccccc2-n2c(nn3nc4ccccc4c23)N1CC yielded growth inhibition of -42

COC(=O)/C=C(/C=C1/C(C#N)=C(N)N(c2ccc(Cl)cc2)C1(C)/C(=C/C(=O)OC)C(=O)OC)C(=O)OC (stereo not given) yielded growth inhibition of 2.5

CCCCCC/C(CC(=O)CCC(=O)NCCc1ccccc1)=N\Nc1ccc([N+](=O)[O-])cc1[N+](=O)[O-] yielded growth inhibition of -35.5

CC(=O)OC/C=C(\C)CCC=C(C)C yielded growth inhibition of -12.2

CCOC(=O)c1ccc[n+]([O-])c1 yielded growth inhibition of -18.6

N#C/C(=C\N1CC(=O)NC1=S)C(=O)c1ccc2ccccc2c1 yielded growth inhibition of -26.2

CC(=O)Nc1ccc(N=C/C=C/c2ccccc2)cc1 yielded growth inhibition of 5.9

O=C1NC(N2CCCCC2)=N/C1=C\c1ccc(Cl)cc1 yielded growth inhibition of 2.4

CCSC(C(OC(C)=O)C(OC(C)=O)C(COC(C)=O)OC(C)=O)n1cnc2c(=S)nc[nH]c21 (stereo not given) yielded growth inhibition of 9.35

N#Cc1cccc(O)c1 yielded growth inhibition of -2.45

COc1ccccc1-c1cc(=O)c2c(C)cc(C)nc2[nH]1 yielded growth inhibition of -0.6

O=C1CCCCCCCCC1=O yielded growth inhibition of -11.3

CCCC(NC(=O)OCc1ccccc1)C(=O)NCC(=O)O (stereo not given) (Cbz-[ξNva]-Gly-OH) yielded growth inhibition of 6.05

O=S=C(c1ccccc1)N1CCc2ccccc21 yielded growth inhibition of 12.1

OCC1c2ccccc2C(CO)c2c1ccc1ccccc21 (stereo not given) yielded growth inhibition of -7.1

Cn1c2ccccc2c2ccc3c(c21)C(=O)NC3=O yielded growth inhibition of -7.75

COc1ccc2cc(C(=O)c3ccccc3)c(=O)oc2c1 yielded growth inhibition of 18.8

O=COCCc1ccccc1 yielded growth inhibition of 8.35

COc1ccc2c(c1)OCc1c-2oc2ccccc2c1=O yielded growth inhibition of -10.9

Cc1cc(Br)ccc1N=Cc1ccc(C=Nc2ccc(Br)cc2C)cc1 yielded growth inhibition of -11.8

NC(=O)CC(N)C(=O)NC(Cc1ccccc1)C(=O)NC(Cc1ccccc1)NC(=O)C(Cc1c[nH]c2ccccc12)C(=O)O (stereo not given) yielded growth inhibition of -11.1

C=C(C)S(=O)(=O)c1ccc(C)cc1 yielded growth inhibition of -5.7

CC(C)(C)c1ccc(O)c(CN(Cc2cc(C(C)(C)C)ccc2O)c2ccccc2)c1 yielded growth inhibition of 21.6

c1ccc(CCN=C2c3ccccc3-n3cccc32)nc1 yielded growth inhibition of -6.75

[Mn+2].[Mn+2].c1ccc2c(c1)-c1nc-2nc2[n-]c(nc3nc(nc4[n-]c(n1)c1ccccc41)-c1ccccc1-3)c1cc3c4nc5nc(nc6[n-]c(nc7nc(nc([n-]4)c3cc21)-c1ccccc1-7)c1ccccc61)-c1ccccc1-5 yielded growth inhibition of -8.75

CCCCCC#CC(=O)OCC yielded growth inhibition of -6.25

N/C(=N\C(=O)OCCOC(=O)/N=C(/N)c1ccccc1)c1ccccc1 yielded growth inhibition of -6.05

CC(=O)OC1CC2CC1C1CC=CC21 (stereo not given) yielded growth inhibition of -0.4

CCN(CC)C(=O)C(C(=O)OC)c1ccccc1 (stereo not given) yielded growth inhibition of 7.8

C[Si](C)(C)C#CC(O)CS(=O)c1ccccc1 (stereo not given) yielded growth inhibition of -13.3
